FYI, the data here is from patent US20160264649A1.

Collected IC50 values appear next to each entry.
Target or test system: HIV-1 Env of pseudovirus isolate MGRM-G-011 (subtype G) (HIV-1)
Assay summary: cell-based or functional assay

Binder	IC50
PGT-136 (antibody, V domains shown) VH: QLQLQESGPGLVKPSETLSLTCTVSGGSMRGTDWGENDFHYGWIRQSSAKGLEWIGSIHWRGRTTHYKTSFRSRATLSIDTSNNRFSLTFSFVTAADTAVYYCARHKYHDIFRVVPVAGWFDPWGQGLLVTVSS VL: EIVMTQSPPTLSVSPGETATLSCRASQNVKNNLAWYQLKPGQAPRLLIFDASSRAGGIPDRFSGSGYGTDFTLTVNSVQSEDFGDYFCQQYEEWPRTFGQGTKVDIK	> 50 µg/mL
PGT-137 (antibody, V domains shown) VH: EVHLEESGPGLVRPSETLSLTCTASGGSIRGGEWGDSDYHWGWVRHSPEKGLEWIGSIHWRGTTHYNAPFRGRGRLSIDLSRNQFSLRLTSVTAEDTAVYYCVKHKYHDIVMVVPIAGWFDPWGQGLQVTVSS VL: EIMMTQSPAILSVSPGDRATLSCRASQSVKNNLAWYQKRPGQAPRLLIFDTSSRASGIPARFSGGGSGTEFTLTVNSMQSEDFATYYCQQYEEWPRTFGQGTKVEIK	> 50 µg/mL
PGT-128 (antibody, V domains shown) VH: QPQLQESGPTLVEASETLSLTCAVSGDSTAACNSFWGWVRQPPGKGLEWVGSLSHCASYWNRGWTYHNPSLKSRLTLALDTPKNLVFLKLNSVTAADTATYYCARFGGEVLRYTDWPKPAWVDLWGRGTLVTVSS VL: QSALTQPPSASGSPGQSITISCTGTSNNFVSWYQQHAGKAPKLVIYDVNKRPSGVPDRFSGSKSGNTASLTVSGLQTDDEAVYYCGSLVGNWDVIFGGGTKLTVL	8.21 µg/mL
PGT-127 (antibody, V domains shown) VH: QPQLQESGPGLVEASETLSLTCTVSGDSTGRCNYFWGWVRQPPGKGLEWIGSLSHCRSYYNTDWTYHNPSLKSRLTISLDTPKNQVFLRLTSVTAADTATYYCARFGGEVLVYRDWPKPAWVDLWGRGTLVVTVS VL: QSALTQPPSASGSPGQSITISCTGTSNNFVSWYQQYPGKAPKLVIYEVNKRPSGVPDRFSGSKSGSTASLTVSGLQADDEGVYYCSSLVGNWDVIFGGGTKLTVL	> 50 µg/mL
PGT-131 (antibody, V domains shown) VH: QVQLQESGPGLVKPSETLSLTCTVSGDSINTGHHYWGWVRQVPGKGPEWIAHIHYNTAVLHNPALKSRVTISIFTLKNLITLSLSNVTAADTAVYFCVRSGGDILYYIEWQKPHWFYPWGPGILVTVSS VL: QSALTQPPSASGSLGQSLTISCSGTGSDIGSWNFVSWYQQFPGRAPNLIIFEVNRRRSGVPDRFSGSKSGNTASLTVSGLRSEDEAEYFCSSLSGRWDIVFGGGTKVTVL	> 50 µg/mL
